# experimental_details: Bioabsorption in the Caco cell model
# Format: in vitro ADME
# measurement_setup: human, Caco-2; Caco cell model; read-out: Apparent partition coefficient Papp (according to Lit. Hilgers)

{"compound": "CCCCC1(CC)CS(=O)(=O)c2ccc(N(C)C)cc2C(c2cccc(NC(=O)CCCCCCCCCCC(=O)NCc3cccc(C4C(CCC(O)c5ccc(F)cc5)C(=O)N4c4ccc(F)cc4)c3)c2)[C@H]1O.O=C(O)C(F)(F)F (stereo in doubt) [Example XII]", "units_label": "×10⁻⁶ cm/s", "Papp": 0.00367}
{"compound": "O=C1[C@H](CC[C@H](O)c2ccc(F)cc2)[C@@H](c2ccc(O)cc2)N1c1ccc(F)cc1 [Reference structure, Ezetimibe, reference compound]", "units_label": "×10⁻⁶ cm/s", "Papp": 4.88}
